biological target: recombinant human TFPI (tissue factor pathway inhibitor) (human, UniProt P10646 29-304); assay: cell-based or functional assay
quantityName: FXa assay % of FXa alone, 20 nM Ab, 10 nM TFPI (%)
Entry rule: numbers only, all in %.

Entry clone 1234 (antibody, V domains shown) VH: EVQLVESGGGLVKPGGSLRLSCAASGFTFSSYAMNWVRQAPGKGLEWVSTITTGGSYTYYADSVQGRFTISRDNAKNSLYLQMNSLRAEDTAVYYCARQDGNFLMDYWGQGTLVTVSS VL: DVVMTQTPLSLPVTLGQPASISCKSSQSLLDIDGKTYLNWLQQRPGQSPKRLIYLVSKLDSGVPDRFTGSGSGTDFTLEISRVEAEDVGVYYCWQGTHFPFTFGQGTKVEIKR ; FXa assay % of FXa alone, 20 nM Ab, 10 nM TFPI = 4

This collection of values is drawn from patent US20180030151A1.
